biological target: hAChE (Homo sapiens); assay: biochemical; type: biochemical
value.kind: pIC50
Scale note: pIC50 = -log10(concentration in M).

stdin: Endpoint output: pIC50 of CCC1(c2cn(C(=O)N(C)C)c[n+]2C)Cc2ccccc2C1 [Compound 9] . Value?
stdout: 6.37

====

target: UniProt P22303; assay: biochemical; type: biochemical
value.kind: hAChE RA-residual activity

stdin: Give the measured hAChE RA-residual activity of `CCC1(c2cn(C(=O)N(C)Cc3ccccc3)cn2)Cc2ccccc2C1` .
stdout: 46.4 ± 3.3% yes

====

biological target: hAChE (Homo sapiens, UniProt P22303); experiment: biochemical; format: biochemical; settings: read-out: hAChE IC50 ± SEM
Sequence (P22303 32-614): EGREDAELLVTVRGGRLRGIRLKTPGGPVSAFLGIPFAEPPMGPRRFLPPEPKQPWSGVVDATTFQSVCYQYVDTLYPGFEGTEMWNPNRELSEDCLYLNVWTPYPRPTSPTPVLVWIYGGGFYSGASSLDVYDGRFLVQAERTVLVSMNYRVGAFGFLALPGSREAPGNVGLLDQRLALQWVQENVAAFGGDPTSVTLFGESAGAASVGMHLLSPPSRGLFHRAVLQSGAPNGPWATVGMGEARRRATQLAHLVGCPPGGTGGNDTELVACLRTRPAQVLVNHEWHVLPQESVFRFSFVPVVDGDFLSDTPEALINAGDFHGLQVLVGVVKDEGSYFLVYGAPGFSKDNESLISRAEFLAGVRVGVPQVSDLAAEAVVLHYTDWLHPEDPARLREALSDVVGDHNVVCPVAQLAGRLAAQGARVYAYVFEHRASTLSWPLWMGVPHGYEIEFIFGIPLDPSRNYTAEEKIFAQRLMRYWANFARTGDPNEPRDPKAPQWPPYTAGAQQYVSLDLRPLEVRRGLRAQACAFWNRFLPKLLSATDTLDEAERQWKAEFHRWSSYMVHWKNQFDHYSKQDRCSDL
value.kind: pIC50
Hey, just a heads up that pIC50 is the negative log base 10 of the concentration in molar.

stdin: Query: pIC50; subject: CCC1(c2cn(C(=O)N(C)C)cn2)Cc2ccccc2C1 [Compound 7]
stdout: 4.52

stdin: Entry CCC1(c2cn(C(=O)N3CCCCC3)cn2)Cc2ccccc2C1 [Compound 18] has what pIC50?
stdout: 5.29

stdin: If you can, please state the reported pIC50 value of CCC1(c2cnn(C(=O)N(C)C)n2)Cc2ccccc2C1 [Compound 14] .
stdout: 6.74

stdin: Name the recorded pIC50 for CCC1(c2ncn(C(=O)N(C)C)n2)Cc2ccccc2C1 [Compound 16] .
stdout: 5.70

====

molecular target: hBChE (Homo sapiens, UniProt P06276); assay: Inhibition of cholinesterases, method of Ellman (hBChE); format: biochemical; conditions: 5 min preincubation; read-out: hBChE IC50 ± SEM
Sequence (P06276 29-602): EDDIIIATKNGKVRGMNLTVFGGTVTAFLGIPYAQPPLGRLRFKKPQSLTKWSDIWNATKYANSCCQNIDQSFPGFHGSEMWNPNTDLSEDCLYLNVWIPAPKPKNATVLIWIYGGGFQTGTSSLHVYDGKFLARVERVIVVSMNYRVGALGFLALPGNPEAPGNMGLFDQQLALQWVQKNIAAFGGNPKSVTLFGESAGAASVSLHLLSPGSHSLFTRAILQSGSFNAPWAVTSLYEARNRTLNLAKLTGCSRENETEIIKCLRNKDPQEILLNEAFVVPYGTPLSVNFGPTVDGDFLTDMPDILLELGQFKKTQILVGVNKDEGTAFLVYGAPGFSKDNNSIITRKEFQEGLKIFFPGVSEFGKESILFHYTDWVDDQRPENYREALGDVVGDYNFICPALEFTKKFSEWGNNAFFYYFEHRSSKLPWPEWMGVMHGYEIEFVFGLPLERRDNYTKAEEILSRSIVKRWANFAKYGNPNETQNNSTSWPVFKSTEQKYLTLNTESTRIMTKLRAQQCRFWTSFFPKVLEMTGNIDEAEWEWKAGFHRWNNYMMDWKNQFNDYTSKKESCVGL
value.kind: pIC50
# pIC50: negative log10 of molar concentration; output just the value

stdin: Lab note: need pIC50 for `[2H]C([2H])([2H])C([2H])([2H])C1(c2cn(C(=O)N(CC)CC)cn2)Cc2ccccc2C1` on hBChE (Homo sapiens, UniProt P06276), anyone have it?
stdout: 5.11

stdin: Give the reported pIC50 for `CCN(CC)C(=O)n1cnc(C2(CC)Cc3ccccc3C2)c1` (system: hBChE (Homo sapiens, UniProt P06276)).
stdout: 5.84

stdin: Identify the measured pIC50 of `CCC1(c2ncn(C(=O)N(C)C)n2)Cc2ccccc2C1` for hBChE (Homo sapiens, UniProt P06276).
stdout: 8.39

stdin: Find the measured pIC50: item `CCC1(c2cn(C(=O)N(C)C)cn2)Cc2ccccc2C1` , target or system hBChE (Homo sapiens, UniProt P06276).
stdout: 7.90

stdin: Quick check: pIC50 on hBChE (Homo sapiens, UniProt P06276), item `CCC1(c2cn(C(=O)N(C)Cc3ccccc3)cn2)Cc2ccccc2C1` ?
stdout: 7.02

stdin: Entry `CCC1(c2cn(C(=O)N3CCCCC3)cn2)Cc2ccccc2C1` , system hBChE (Homo sapiens, UniProt P06276): what pIC50 was measured?
stdout: 8.32

stdin: Lab note: need pIC50 with hBChE (Homo sapiens, UniProt P06276) for entry `CCC1(c2cnn(C(=O)N(C)C)n2)Cc2ccccc2C1` , please look it up.
stdout: 8.62

====

Target: hBChE (Homo sapiens, UniProt P06276)
Test: Inhibition of cholinesterases, method of Ellman (hBChE)
Format: biochemical
Method: For time-dependency measurements, the pre-incubation time was varied (1 min, 5 min, 15 min, 30 min or 60 min). […] The initial velocities in the presence (vi) and absence (vo) of the test compounds were calculated. The inhibitory potencies were expressed as the residual activities, according to RA=(vi−b)/(vo−b), where b is the blank value using phosphate buffer without ChEs. […]
value.kind: IC50

stdin: Form field: reported IC50 of `CCC1(c2cn(C(=O)N(C)C)c[n+]2C)Cc2ccccc2C1`
stdout: 4.18 nM

These entries and their values trace back to patent US20260183273A1.
